// data source = PubChem BioAssay

Assay: CREB reporter modulators under forskolin, primary screen, cell-based, PC12, CRE-LacZ reporter, forskolin-stimulated (AID 1146);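 further: PC12 cells with 6xCRE LacZ reporter stimulated by forskolin 10 µM; beta-galactosidase reporter signal reflecting CREB driven transcription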
Settings: luminescence, 4.5 h, higher = more signal, called active from +8 up or from −8 down
Active and inactive are the calls of the source.

COMPOUND	z-score
CC(=O)Nc1ccc([C@@H]2N[C@H](C(=O)O)CC[C@H]2C)cc1	-1.21 (inactive)
COC(=O)[C@H]1[C@@H](O)[C@@]2(O)c3ccccc3O[C@@]2(c2ccccc2)[C@@H]1c1ccccc1	0.0923 (inactive)
CC(C)[C@@H](OCc1ccccc1)[C@H](C)C=NOC[C@@H](O)COCc1ccco1	0.109 (inactive)
CON=C(C)CCC(=O)OC[C@H]1O[C@H](c2ccccc2)C=C[C@@H]1Oc1ccc(OC)cc1	-0.0322 (inactive)
CCOC(=O)CCN1C(=O)[C@H]2[C@H]3[C@H](O)[C@H](O)CC(=NOCc4ccccc4)[C@H]3CC[C@H]2C1=O	-0.21 (inactive)
CC(C)=CCCC(C)=CCON=C1C[C@@H](O)[C@@H](O)[C@@H]2[C@@H]3C(=O)N(c4ccc(F)cc4F)C(=O)[C@@H]3CC[C@@H]12	0.671 (inactive)
CO[C@@H]1COC(=O)[C@H](CCSC)NC(=O)CC=C[C@@H](C)COC(=O)CCC[C@H]1C	0.85 (inactive)
CCOC(=O)[C@H](CC(C)C)NC(=O)CCC1CC(OC(=O)NCc2cccc3ccccc23)CC2(CCCC(COC(=O)NCc3ccncc3)O2)O1 (stereo partly specified)	0.633 (inactive)
COC(=O)CC=C[C@@H](C)[C@@H]1C=C[C@H](O)[C@@H](CO)O1	1.03 (inactive)
COc1ccc(COC(=O)NN=C2C[C@@H](O)[C@@H](O)[C@@H]3[C@@H]4C(=O)N(c5cccc(Oc6ccccc6)c5)C(=O)[C@@H]4CC[C@@H]23)cc1	0.087 (inactive)
C[C@@H]1CC[C@H]2C(=O)O[C@@H](COc3ccc(C(C)(C)C)cc3)CN2[C@@H]1c1ccc(Br)cc1	0.403 (inactive)
CO[C@H]1COC(=O)[C@@H](C)COC(=O)[C@H](C)NC(=O)CC=C[C@H]1C	-0.959 (inactive)
CCOC(=O)[C@H](CC(C)C)NC(=O)CCC1CC(OC(=O)NCCc2ccc(F)cc2)CC2(CCCC(COC(=O)NCCc3ccccc3OC)O2)O1 (stereo partly specified)	0.135 (inactive)
C[C@@H]1NC(=O)[C@@H](C)COC(=O)[C@H](C)NC(=O)[C@@H](C)COC1=O	-0.105 (inactive)
C[C@H]1Cc2c(COc3ccccc3)nc3c(c2CO1)CN(CCOc1ccccc1)CC3	-0.632 (inactive)
COC(=O)CC=C[C@@H](C)[C@@H](C=NO[C@H](C)c1cn([C@H](CO)Cc2ccccc2)nn1)OC	0.303 (inactive)
Cc1cc2c(nc1C)CCCCN2CC(C)ON=C[C@@H](C)[C@H](OCc1ccccc1)C(C)C (stereo partly specified)	0.676 (inactive)
COC(=O)[C@H](C)NC(=O)CCC1CC(OC(=O)NCc2ccc3c(c2)OCO3)CC2(CCCC(COC(=O)NCC(c3ccccc3)c3ccccc3)O2)O1 (stereo partly specified)	1.96 (inactive)
CC(C)=CCCC(C)=CCON=C1C[C@@H](O)[C@@H](O)[C@@H]2[C@@H]3C(=O)N(C(C)(C)C)C(=O)[C@@H]3CC[C@@H]12	0.585 (inactive)
CO[C@H]1COC(=O)CC=C[C@H](C)[C@@H](OC)COC(=O)[C@@H](C)NC(=O)CC=C[C@@H]1C	0.123 (inactive)
O=C1CCCC=C1C(O)CCCCBr (stereo unspecified)	27 (active)
CCOC(=O)[C@H](CC(C)C)NC(=O)CCC1CC(OC(=O)NCc2ccc3c(c2)OCO3)CC2(CCCC(COC(=O)NCC3CCCCC3)O2)O1 (stereo partly specified)	0.389 (inactive)
CC(C)=CCCC(C)=CCON=C1C[C@@H](O)[C@@H](O)[C@@H]2[C@@H]3C(=O)N(c4cccc(Oc5ccccc5)c4)C(=O)[C@@H]3CC[C@@H]12	0.557 (inactive)
C[C@H]1CC[C@H]2C(=O)OC(CO)CN2[C@@H]1c1ccc(Br)cc1 (stereo partly specified)	-1.43 (inactive)
CCCNC(=O)OC[C@H]1O[C@H](CCON=C(C)CCN2CCCc3nc(C)c(C)cc32)C=C[C@@H]1Oc1ccc(OC)cc1	0.367 (inactive)
CC(C)CON=C1C[C@@H](O)[C@@H](O)[C@@H]2[C@@H]3C(=O)N(C[C@@H]4CCCO4)C(=O)[C@@H]3CC[C@@H]12	0.436 (inactive)
CO[C@H](C1CCCCC1)[C@H](C)C=CCC(=O)OCCCc1ccccc1	-0.468 (inactive)
O=C1[C@H]2[C@H]3[C@H](O)[C@H](O)CC(=NOCc4ccccc4)[C@@H]3CC[C@H]2C(=O)N1Cc1ccc2c(c1)OCO2	-0.174 (inactive)
C[C@@H](c1ccccc1)N1C(=O)[C@H]2[C@H]3[C@H](O)[C@H](O)CC(=O)[C@H]3CC[C@H]2C1=O	0.209 (inactive)
COc1ccc(O[C@H]2C=C[C@@H](c3ccccc3)O[C@@H]2COC(=O)CCC(C)=NO[C@@H]2O[C@H](COC(C)=O)[C@@H](OC(C)=O)[C@H](OC(C)=O)[C@H]2OC(C)=O)cc1	0.847 (inactive)
COC(=O)C1=C(C)N(Cc2ccccc2)[C@]23O[C@](C(=O)OC)(C(=O)N2[C@@H]1c1ccccc1)C(C(=O)OC)=C3C(=O)OC	-1.61 (inactive)
